This collection of values is drawn from ChEMBL document CHEMBL2046381.

# measured target: Protein deacetylase HDAC6 (Homo sapiens)
# Sequence (Q9UBN7 whole entry): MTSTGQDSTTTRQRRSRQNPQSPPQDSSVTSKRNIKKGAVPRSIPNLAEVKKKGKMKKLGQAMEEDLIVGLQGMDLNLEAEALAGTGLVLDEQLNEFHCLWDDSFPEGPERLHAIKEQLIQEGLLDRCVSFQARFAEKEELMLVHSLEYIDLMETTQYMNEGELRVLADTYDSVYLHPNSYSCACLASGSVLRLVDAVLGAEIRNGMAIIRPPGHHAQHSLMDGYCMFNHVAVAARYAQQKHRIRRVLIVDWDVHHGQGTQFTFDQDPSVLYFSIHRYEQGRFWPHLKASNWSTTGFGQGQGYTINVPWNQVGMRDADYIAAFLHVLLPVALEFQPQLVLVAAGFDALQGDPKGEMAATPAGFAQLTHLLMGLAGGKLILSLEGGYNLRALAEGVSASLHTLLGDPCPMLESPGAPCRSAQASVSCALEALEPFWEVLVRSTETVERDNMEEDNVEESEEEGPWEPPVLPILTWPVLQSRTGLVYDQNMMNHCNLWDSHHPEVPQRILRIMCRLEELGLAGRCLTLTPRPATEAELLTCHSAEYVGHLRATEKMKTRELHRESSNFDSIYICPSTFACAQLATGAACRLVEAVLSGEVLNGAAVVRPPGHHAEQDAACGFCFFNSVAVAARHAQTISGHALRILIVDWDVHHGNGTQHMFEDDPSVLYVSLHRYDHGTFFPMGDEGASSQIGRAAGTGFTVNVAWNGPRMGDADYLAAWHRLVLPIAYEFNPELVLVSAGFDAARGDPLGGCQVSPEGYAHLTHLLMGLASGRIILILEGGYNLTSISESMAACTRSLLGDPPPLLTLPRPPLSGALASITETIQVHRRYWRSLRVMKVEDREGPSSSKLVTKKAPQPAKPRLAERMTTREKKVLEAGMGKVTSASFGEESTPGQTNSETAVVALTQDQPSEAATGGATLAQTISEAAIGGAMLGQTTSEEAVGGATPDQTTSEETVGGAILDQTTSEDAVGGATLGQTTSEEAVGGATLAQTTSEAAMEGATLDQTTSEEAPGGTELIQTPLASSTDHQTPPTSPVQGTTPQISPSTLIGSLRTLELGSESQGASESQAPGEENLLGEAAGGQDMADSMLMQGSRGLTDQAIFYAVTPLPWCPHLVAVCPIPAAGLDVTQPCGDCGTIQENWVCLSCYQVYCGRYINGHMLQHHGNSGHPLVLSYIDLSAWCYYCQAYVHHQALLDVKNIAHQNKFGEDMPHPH
# experiment notes: Inhibition of human recombinant HDAC6 using Boc-lys(Ac)-AMC as substrate preincubated for 20 mins with substrate measured after 60 mins by fluorescence analysis
pIC50: −log10 of the molar value.

- smiles: "CSCCNC(=O)/C(Cc1ccc(O)c(Br)c1)=N/N"
  pIC50: "< 4.30"
- smiles: "COc1ccc(C/C(=N\\O)C(=O)NCCSC)cc1Br"
  pIC50: "< 4.30"
- smiles: "CO/N=C(\\Cc1ccc(OC)c(Br)c1)C(=O)NCCSC"
  pIC50: "< 4.30"
- smiles: "CO/N=C(\\Cc1ccc(OC)c(Br)c1)C(=O)NCCSSCCNC(=O)/C(Cc1ccc(OC)c(Br)c1)=N/OC"
  pIC50: "< 4.30"
- smiles: "COc1ccc(C/C(=N\\N)C(=O)NCCSSCCNC(=O)/C(Cc2ccc(OC)c(Br)c2)=N/N)cc1Br"
  pIC50: "< 4.30"
- smiles: "CSCCNC(=O)/C(Cc1ccc(O)c(Br)c1)=N/O"
  pIC50: "< 4.30"
- smiles: "CSc1ccc(C/C(=N\\O)C(=O)NCCS)cc1"
  pIC50: 5.89
- smiles: "CO/N=C(\\Cc1ccc(O)c(Br)c1)C(=O)NCCSC"
  pIC50: "< 4.30"
- smiles: "COc1ccc(C/C(=N\\N)C(=O)NCCS)cc1Br"
  pIC50: 6.49
- smiles: "N/N=C(\\Cc1ccc(O)c(Br)c1)C(=O)NCCSSCCNC(=O)/C(Cc1ccc(O)c(Br)c1)=N/N"
  pIC50: 5.30

* * *

# experiment notes: Growth inhibition of human WI38 cells after 96 hrs by sulphorhodamine B assay
# Format: cell-based
# conditions used: WI-38 cells
Listed below: GI50 at 96 h values for each entry.

- smiles: "CSCCNC(=O)/C(Cc1ccc(O)c(Br)c1)=N/N"
  quantity unit: "µM"
  inequality operator: ">"
  GI50 at 96 h: 50
- smiles: "O=C(NCCS)/C(Cc1ccc(O)c(Br)c1)=N/O"
  quantity unit: "µM"
  inequality operator: "="
  GI50 at 96 h: 3.4
- smiles: "O=C(CCNC(=O)/C(Cc1ccc(O)c(Br)c1)=N/O)NO"
  quantity unit: "µM"
  inequality operator: "="
  GI50 at 96 h: 7.86
- smiles: "O=C(Cc1ccc(O)c(Br)c1)C(=O)NCCSSCCNC(=O)C(=O)Cc1ccc(O)c(Br)c1"
  quantity unit: "µM"
  inequality operator: "="
  GI50 at 96 h: 33.1
- smiles: "O=C(NCCSSCCNC(=O)/C(Cc1ccccc1)=N/O)/C(Cc1ccccc1)=N/O"
  quantity unit: "µM"
  inequality operator: ">"
  GI50 at 96 h: 50
- smiles: "COc1cc(C/C(=N\\O)C(=O)NCCSSCCNC(=O)/C(Cc2cc(Br)c(OC)c(OC)c2)=N/O)cc(Br)c1OC"
  quantity unit: "µM"
  inequality operator: "="
  GI50 at 96 h: 2.14

* * *

Listed below: GI50 at 96 h values for each entry.
# experiment notes: Growth inhibition of human WI38 cells after 96 hrs by sulphorhodamine B assay
# Format: cell-based
# conditions used: WI-38 cells
readout type: GI50 at 96 h

- smiles: "O=C(O)CCP(CCC(=O)O)CCC(=O)O"
  readout type: "GI50 at 96 h"
  observed: "> 50 µM"
- smiles: "CSCCNC(=O)/C(Cc1ccc(O)c(Br)c1)=N/O"
  readout type: "GI50 at 96 h"
  observed: "> 50 µM"
- smiles: "CO/N=C(\\Cc1ccc(O)c(Br)c1)C(=O)NCCSC"
  readout type: "GI50 at 96 h"
  observed: "> 50 µM"
- smiles: "CO/N=C(\\Cc1ccc(O)c(Br)c1)C(=O)NCCSSCCNC(=O)/C(Cc1ccc(O)c(Br)c1)=N/OC"
  readout type: "GI50 at 96 h"
  observed: "> 50 µM"
